Applied Conditions: in ethyl acetate, 313.12 K
Observable: solubility (mole fraction)

>>> measured_number("Clc1ccccc1C(c1ccccc1)(c1ccccc1)n1ccnc1")
0.0198

====

Applied Conditions: in methyl propionate, 308.17 K
Observable: solubility (mole fraction)

>>> measured_number("Clc1ccccc1C(c1ccccc1)(c1ccccc1)n1ccnc1")
0.0227

====

Applied Conditions: in n-pentanol, 313.07 K
Observable: solubility (mole fraction)

>>> measured_number("Clc1ccccc1C(c1ccccc1)(c1ccccc1)n1ccnc1")
0.0587

====

Applied Conditions: in isopropanol, 283.1 K
Observable: solubility (mole fraction)

>>> result("Clc1ccccc1C(c1ccccc1)(c1ccccc1)n1ccnc1")
0.00571
